FYI, the data here is from patent US20260085076A1.

Protocol details: Solubility at different pH values
Format: physicochemical
Test conditions: aqueous solution of pH 8.0, aqueous buffer, thermodynamic from solid, pH 8.0, 32° C.
Protocol: Excess samples of crystal form I were respectively added to 10 mL of solutions with different pH value. After being shaken for 24 hours by a constant temperature shaker at 32° C. at 100 rpm, the saturated solutions (with undissolved solids at the bottom) were centrifuged and filtered, then determined linear solutions (formulated with reference substances) with different concentrations and saturated solutions with different pH values under the content item. […]
Value type: solubility at 24 h

Tell me the measured solubility at 24 h of C=CC(=O)N1CCc2c(c(-c3ccnc4[nH]ccc34)nn2C)C1 [crystal form I] , please.
60.8 µg/mL
